# credit: patent US20030148958A1

Assignment: determine reported CRF2R Emax for the given binders.
# assayed-target: T1, corticotropin releasing factor 2 receptor; further: reference of the scale not given here
# T1 sequence (Q13324 whole entry, species assumed, looked up): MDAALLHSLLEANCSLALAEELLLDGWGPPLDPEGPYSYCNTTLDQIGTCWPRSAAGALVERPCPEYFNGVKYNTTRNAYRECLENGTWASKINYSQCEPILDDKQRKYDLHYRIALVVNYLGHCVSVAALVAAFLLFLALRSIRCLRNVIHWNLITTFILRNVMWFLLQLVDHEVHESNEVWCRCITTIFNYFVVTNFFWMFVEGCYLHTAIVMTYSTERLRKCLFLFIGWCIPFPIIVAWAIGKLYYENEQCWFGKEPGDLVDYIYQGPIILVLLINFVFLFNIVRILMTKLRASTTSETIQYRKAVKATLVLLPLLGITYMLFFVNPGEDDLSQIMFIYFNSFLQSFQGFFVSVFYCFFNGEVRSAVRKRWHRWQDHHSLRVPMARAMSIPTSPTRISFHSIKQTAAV
# test-summary: cell-based or functional assay
Ends that are not written are not given here.
Give bare numbers, in %.

Examples from the recorded data:
binder: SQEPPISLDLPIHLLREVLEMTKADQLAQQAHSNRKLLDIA-NH2 [SEQ ID NO 94]
recorded-endpoint: CRF2R Emax
measurement-units: %
endpoint-value: 6.15
//
binder: ZGPPISIDLPQQLLRKMIEIEKQEKEKQQAANNRLLLDTI (C-terminal amide) [SEQ ID NO 198]
recorded-endpoint: CRF2R Emax
measurement-units: %
endpoint-value: 100
//
binder: ZGPPISIDLPFHLLRKMIEIEKQEKEKQQAANNRLLLDTI (C-terminal amide) [SEQ ID NO 69]
recorded-endpoint: CRF2R Emax
measurement-units: %
endpoint-value: 81
//
binder: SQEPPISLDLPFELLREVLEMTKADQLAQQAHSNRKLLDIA-NH2 [SEQ ID NO 97]
recorded-endpoint: CRF2R Emax
measurement-units: %
endpoint-value: 7.6

// for each binder below, give its CRF2R Emax
1. IVLSLDVPIGLLQILLEQAAAREQATTNARILARV-NH2 [SEQ ID NO 139]
2. ZGPPISIDLPQHLLRKMIEIEKQEKEKQQAANNRLLLDTI (C-terminal amide) [SEQ ID NO 207]

60
96
